The reported numbers originate from ChEMBL document CHEMBL4152188.

- System: Pseudomonas aeruginosa
- ASSAY PROTOCOL: Antibacterial activity against IMP-4 producing Pseudomonas aeruginosa isolate 208247 after 18 hrs in presence of BPL by CLSI broth microdilution method
- Format: functional
- STATED CONDITIONS: isolate 208247, 18 h
MEASUREMENT TYPE: MIC (µg/mL)
Value expressed in µg/mL; do not type the unit.

Request: Entry CC(C)C(O/N=C(\C(=O)NC1C(=O)N(S(=O)(=O)O)C1(CF)CF)c1csc(N)n1)c1cc(=O)c(O)cn1O (centres undefined) has what MIC?
Result: 64

Request: Now the same for CC(C)C(O/N=C(\C(=O)NC1C(=O)N(S(=O)(=O)O)C12CCC2)c1csc(N)n1)c1cc(=O)c(O)cn1O (centres undefined)
Result: 16

Request: Now the same for COC[C@@H]1[C@H](NC(=O)/C(=N\OC(c2cc(=O)c(O)cn2O)C(C)C)c2csc(N)n2)C(=O)N1S(=O)(=O)O (some centres undefined)
Result: 8

* * *

- System: Escherichia coli
- ASSAY PROTOCOL: Antibacterial activity against extended-spectrum beta-lactamase producing Escherichia coli isolate 106342 after 18 hrs by CLSI broth microdilution method
- Format: functional
- STATED CONDITIONS: isolate 106342, 18 h
MEASUREMENT TYPE: MIC

Request: Entry CC(C)C(O/N=C(\C(=O)NC1C(=O)N(S(=O)(=O)O)C12CCOCC2)c1csc(N)n1)c1cc(=O)c(O)cn1O (stereo not drawn) has what MIC?
Result: 8 µg/mL

Request: Now the same for CC(C)C(O/N=C(\C(=O)N[C@@H]1C(=O)N(S(=O)(=O)O)[C@@H]1COS(=O)(=O)O)c1csc(N)n1)c1cc(=O)c(O)cn1O (stereo partly drawn)
Result: 8 µg/mL

Request: Now the same for CC(C)C(O/N=C(\C(=O)N[C@@H]1C(=O)N(S(=O)(=O)O)[C@@H]1COC(=O)CNC(=O)c1cc(=O)c(O)c[nH]1)c1csc(N)n1)c1cc(=O)c(O)cn1O (stereo partly drawn)
Result: 16 µg/mL

Request: Now the same for CC(=O)OC[C@@H]1[C@H](NC(=O)/C(=N\OC(c2cc(=O)c(O)cn2O)C(C)C)c2csc(N)n2)C(=O)N1S(=O)(=O)O (stereo partly drawn)
Result: 1 µg/mL

Request: Now the same for Cc1csc(SC[C@@H]2[C@H](NC(=O)/C(=N\OC(c3cc(=O)c(O)cn3O)C(C)C)c3csc(N)n3)C(=O)N2S(=O)(=O)O)n1 (stereo partly drawn)
Result: 2 µg/mL

Request: Now the same for CC(C)C(O/N=C(\C(=O)N[C@@H]1C(=O)N(S(=O)(=O)O)[C@@H]1COC(N)=O)c1csc(N)n1)c1cc(=O)c(O)cn1O (stereo partly drawn)
Result: 0.5 µg/mL

Request: Now the same for C#CC1[C@H](NC(=O)/C(=N\OC(c2cc(=O)c(O)cn2O)C(C)C)c2csc(N)n2)C(=O)N1S(=O)(=O)O (stereo partly drawn)
Result: 64 µg/mL

Request: Now the same for CC(C)C(O/N=C(\C(=O)N[C@@H]1C(=O)N(S(=O)(=O)O)[C@@H]1CN1CCNCC1)c1csc(N)n1)c1cc(=O)c(O)cn1O (stereo partly drawn)
Result: 2 µg/mL

Request: Now the same for CC(C)C(O/N=C(\C(=O)N[C@@H]1C(=O)N(S(=O)(=O)O)[C@@H]1COC(=O)c1ccc(O)c(O)c1Cl)c1csc(N)n1)c1cc(=O)c(O)cn1O (stereo partly drawn)
Result: 16 µg/mL

Request: Now the same for CC(C)C(O/N=C(\C(=O)N[C@@H]1C(=O)N(S(=O)(=O)O)[C@@H]1CSc1nnnn1C)c1csc(N)n1)c1cc(=O)c(O)cn1O (stereo partly drawn)
Result: 1 µg/mL

Request: Now the same for CC(C)C(O/N=C(\C(=O)N[C@@H]1C(=O)N(S(=O)(=O)O)[C@@H]1CO)c1csc(N)n1)c1cc(=O)c(O)cn1O (stereo partly drawn)
Result: 64 µg/mL

Request: Now the same for COC[C@@H]1[C@H](NC(=O)/C(=N\OC(c2cc(=O)c(O)cn2O)C(C)C)c2csc(N)n2)C(=O)N1S(=O)(=O)O (stereo partly drawn)
Result: 0.5 µg/mL

Request: Now the same for CC(C)C(O/N=C(\C(=O)N[C@@H]1C(=O)N(S(=O)(=O)O)[C@@H]1Cn1cc(COCc2cc(=O)c(O)cn2O)nn1)c1csc(N)n1)c1cc(=O)c(O)cn1O (stereo partly drawn)
Result: 16 µg/mL

* * *

- Tested on: Escherichia coli
- ASSAY PROTOCOL: Selectivity index, ratio of MIC for against extended-spectrum beta-lactamase producing Escherichia coli isolate 208687 to MIC for extended-spectrum beta-lactamase producing Escherichia coli isolate 208687 in presence of BPL
- Format: functional
MEASUREMENT TYPE: Selectivity Index
# print the numeric value only

Request: Entry CC(C)C(O/N=C(\C(=O)N[C@@H]1C(=O)N(S(=O)(=O)O)[C@@H]1CN1CCNC1=O)c1csc(N)n1)c1cc(=O)c(O)cn1O (some centres undefined) has what Selectivity Index?
Result: 2

Request: Now the same for CC(C)C(O/N=C(\C(=O)NC1C(=O)N(S(=O)(=O)O)C12CCC2)c1csc(N)n1)c1cc(=O)c(O)cn1O (centres undefined)
Result: 2

Request: Now the same for CC(C)C(O/N=C(\C(=O)N[C@@H]1C(=O)N(S(=O)(=O)O)[C@@H]1CSc1nc2ccccc2o1)c1csc(N)n1)c1cc(=O)c(O)cn1O (some centres undefined)
Result: 4

Request: Now the same for C=CC1[C@H](NC(=O)/C(=N\OC(c2cc(=O)c(O)cn2O)C(C)C)c2csc(N)n2)C(=O)N1S(=O)(=O)O (some centres undefined)
Result: 32

* * *

- Tested on: Klebsiella pneumoniae
- ASSAY PROTOCOL: Antibacterial activity against KPC-2 producing Klebsiella pneumoniae isolate 209735 after 18 hrs by CLSI broth microdilution method
- Type: functional
- STATED CONDITIONS: isolate 209735, 18 h
Please provide measured MIC for the entries that follow.
Value expressed in µg/mL; do not type the unit.

Request: Entry COC[C@@H]1[C@H](NC(=O)/C(=N\OC(c2cc(=O)c(O)cn2O)C(C)C)c2csc(N)n2)C(=O)N1S(=O)(=O)O (stereo partly specified) has what MIC?
Result: 16

Request: Now the same for CC(C)C(O/N=C(\C(=O)N[C@@H]1C(=O)N(S(=O)(=O)O)[C@@H]1CSc1nc2ccccc2o1)c1csc(N)n1)c1cc(=O)c(O)cn1O (stereo partly specified)
Result: 4

Request: Now the same for CC(C)C(O/N=C(\C(=O)N[C@@H]1C(=O)N(S(=O)(=O)O)[C@@H]1COC(=O)c1ccc(O)c(O)c1Cl)c1csc(N)n1)c1cc(=O)c(O)cn1O (stereo partly specified)
Result: 32

Request: Now the same for CC(C)C(O/N=C(\C(=O)N[C@@H]1C(=O)N(S(=O)(=O)O)[C@@H]1COC(N)=O)c1csc(N)n1)c1cc(=O)c(O)cn1O (stereo partly specified)
Result: 32

Request: Now the same for CC(C)C(O/N=C(\C(=O)N[C@@H]1C(=O)N(S(=O)(=O)O)[C@@H]1CSc1nc(=O)c(O)nn1C)c1csc(N)n1)c1cc(=O)c(O)cn1O (stereo partly specified)
Result: 4

* * *

Please provide measured MIC for the entries that follow.
- Tested on: Escherichia coli
- ASSAY PROTOCOL: Antibacterial activity against Escherichia coli isolate 210737 after 18 hrs by CLSI broth microdilution method
- Type: functional
- STATED CONDITIONS: isolate 210737, 18 h
Value expressed in µg/mL; do not type the unit.

Request: Which MIC is reported with Escherichia coli for this entry: COC[C@@H]1[C@H](NC(=O)/C(=N\OC(c2cc(=O)c(O)cn2O)C(C)C)c2csc(N)n2)C(=O)N1S(=O)(=O)O (some centres undefined) ?
Result: 0.5

Request: Now the same for CC(C)C(O/N=C(\C(=O)N[C@@H]1C(=O)N(S(=O)(=O)O)C12CCCC2)c1csc(N)n1)c1cc(=O)c(O)cn1O (some centres undefined)
Result: 0.5

Request: Now the same for CC(C)C(O/N=C(\C(=O)N[C@@H]1C(=O)N(S(=O)(=O)O)[C@@H]1CSc1nc(=O)c(O)nn1C)c1csc(N)n1)c1cc(=O)c(O)cn1O (some centres undefined)
Result: 2

Request: Now the same for CC(C)C(O/N=C(\C(=O)N[C@@H]1C(=O)N(S(=O)(=O)O)[C@@H]1COC(=O)CNC(=O)c1cc(=O)c(O)c[nH]1)c1csc(N)n1)c1cc(=O)c(O)cn1O (some centres undefined)
Result: 16

Request: Now the same for Cc1nnc(SC[C@@H]2[C@H](NC(=O)/C(=N\OC(c3cc(=O)c(O)cn3O)C(C)C)c3csc(N)n3)C(=O)N2S(=O)(=O)O)s1 (some centres undefined)
Result: 0.5

Request: Now the same for Cc1csc(SC[C@@H]2[C@H](NC(=O)/C(=N\OC(c3cc(=O)c(O)cn3O)C(C)C)c3csc(N)n3)C(=O)N2S(=O)(=O)O)n1 (some centres undefined)
Result: 0.5

Request: Now the same for C[C@@H](O)[C@H]1C(=O)N2C(C(=O)O)=C(S[C@@H]3CN[C@H](C(=O)N(C)C)C3)[C@H](C)[C@H]12 [MEROPENEM]
Result: 0.125
